# credit: the supplement of paper PMC10567573

B1: TRIM35 (parent)
chain: WEVQVSPTCPVCKDRASPADLRTN

variants of: B1; test: protein stability index of a GFP-peptide fusion (GPS, HEK-293T) (PSI 1-6); higher = more stable; conditions: c terminus: a fixed tail appended;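 note: lentivirally expressed fusions sorted by FACS into six bins by GFP to DsRed ratio, PSI derived from sequencing read proportions per bin multiplied by bin number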
Listed below: protein stability index values for each entry.
API doc: respond with a numeric literal and nothing else, no unit.

**Q:** For the variant shown here, `R22C` , give the reported protein stability index.
**A:** 2.91

**Q:** Please do the same for `V11H` as well.
**A:** 1.96

**Q:** Please do the same for `L21G` as well.
**A:** 2.04

**Q:** Please do the same for `V11R` as well.
**A:** 2.93
